# Target Or System: BRD4 (Homo sapiens, UniProt O60885)
# Construct: full-length BRD4 fused to NanoLuc at N terminus
# Experiment Summary: NanoBRET BRD4, transient BRD4-NanoLuc in HEK293T cells
# Test Parameters: intact HEK293 cells
Consider the reported IC50 of an entry and match it to a band in 0: < 0.5 µM; 1: ≥ 0.5 µM and < 0.8 µM; 2: ≥ 0.8 µM

[[record]]
compound = "C=CC1CN(Cc2ccccn2)C(=O)C2CCCC1N2S(=O)(=O)c1ccc(-c2cn(CCOCCNC(=O)CC3N=C(c4ccc(Cl)cc4)c4c(sc(C)c4C)-n4c(C)nnc43)nn2)c(Cl)c1 (stereo not shown)"
target_or_system = "BRD4 (Homo sapiens, UniProt O60885)"
qualitative_label = 0

[[record]]
compound = "C=CC1CN(Cc2ccccn2)C(=O)C2CCCC1N2S(=O)(=O)c1cc(Cl)cc(-c2cn(CCOCCNC(=O)CC3N=C(c4ccc(Cl)cc4)c4c(sc(C)c4C)-n4c(C)nnc43)nn2)c1 (stereo not shown)"
target_or_system = "BRD4 (Homo sapiens, UniProt O60885)"
qualitative_label = 2

[[record]]
compound = "Cc1sc2c(c1C)C(c1ccc(Cl)cc1)=NC(CC(=O)N1CC(CN3CCC(Cn4cc(C5CN(Cc6ccccn6)C(=O)C6CCCC5N6S(=O)(=O)c5cc(Cl)cc(Cl)c5)nn4)CC3)C1)c1nnc(C)n1-2 (stereo not shown) [a12c]"
target_or_system = "BRD4 (Homo sapiens, UniProt O60885)"
qualitative_label = 1

[[record]]
compound = "Cc1sc2c(c1C)C(c1ccc(Cl)cc1)=NC(CC(=O)N1CCC(N3CCC(n4cc(COCC5CN(Cc6ccccn6)C(=O)C6CCCC5N6S(=O)(=O)c5cc(Cl)cc(Cl)c5)nn4)CC3)CC1)c1nnc(C)n1-2 (stereo not shown)"
target_or_system = "BRD4 (Homo sapiens, UniProt O60885)"
qualitative_label = 0

[[record]]
compound = "Cc1sc2c(c1C)C(c1ccc(Cl)cc1)=NC(CC(=O)NCCOCCn1cc(C3CN(Cc4ccccn4)C(=O)C4CCCC3N4S(=O)(=O)c3cc(Cl)cc(Cl)c3)nn1)c1nnc(C)n1-2 (stereo not shown)"
target_or_system = "BRD4 (Homo sapiens, UniProt O60885)"
qualitative_label = 2

[[record]]
compound = "Cc1sc2c(c1C)C(c1ccc(Cl)cc1)=NC(CC(=O)N1CC(CN3CCC(n4cc(C5CN(Cc6ccccn6)C(=O)C6CCCC5N6S(=O)(=O)c5cc(Cl)cc(Cl)c5)nn4)CC3)C1)c1nnc(C)n1-2 (stereo not shown) [a11c]"
target_or_system = "BRD4 (Homo sapiens, UniProt O60885)"
qualitative_label = 2


Which bin, given its IC50, does C=CC1CN(Cc2cn(CCOCCNC(=O)CC3N=C(c4ccc(Cl)cc4)c4c(sc(C)c4C)-n4c(C)nnc43)nn2)C(=O)C2CCCC1N2S(=O)(=O)c1cc(Cl)cc(Cl)c1 (stereo not shown) occupy? 1

Which bin, given its IC50, does Cc1sc2c(c1C)C(c1ccc(Cl)cc1)=NC(CC(=O)N1CCC(CN3CCC(n4cc(COCC5CN(Cc6ccccn6)C(=O)C6CCCC5N6S(=O)(=O)c5cc(Cl)cc(Cl)c5)nn4)CC3)CC1)c1nnc(C)n1-2 (stereo not shown) occupy? 2

Which bin, given its IC50, does Cc1sc2c(c1C)C(c1ccc(Cl)cc1)=NC(CC(=O)N1CCC(N3CCC(n4cc(C5CN(Cc6ccccn6)C(=O)C6CCCC5N6S(=O)(=O)c5cc(Cl)cc(Cl)c5)nn4)CC3)CC1)c1nnc(C)n1-2 (stereo not shown) occupy? 0
